The measurements presented in this section are drawn from patent US9296734B2.

Reported pIC50 values are given for each entry in this list.
test_system: Beta Secretase enzyme (BACE) (Homo sapiens (Human))
Sequence (P56817 46-501): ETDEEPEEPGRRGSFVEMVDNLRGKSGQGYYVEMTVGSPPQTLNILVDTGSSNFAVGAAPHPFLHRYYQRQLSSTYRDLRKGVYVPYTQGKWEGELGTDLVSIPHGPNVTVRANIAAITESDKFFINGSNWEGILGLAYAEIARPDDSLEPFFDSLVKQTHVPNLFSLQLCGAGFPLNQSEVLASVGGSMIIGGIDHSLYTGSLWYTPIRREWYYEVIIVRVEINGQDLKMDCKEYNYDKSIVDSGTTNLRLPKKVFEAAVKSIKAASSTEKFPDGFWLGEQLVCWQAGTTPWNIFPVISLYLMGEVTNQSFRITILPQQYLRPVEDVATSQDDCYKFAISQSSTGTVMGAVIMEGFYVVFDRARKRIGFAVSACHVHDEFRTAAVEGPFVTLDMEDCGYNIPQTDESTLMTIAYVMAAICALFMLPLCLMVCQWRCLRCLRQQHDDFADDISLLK
protocol: In vitro enzymatic BACE FRET assay
Assay type: biochemical
experimental_setup: average IC50, BACE enzyme assay; read-out: BACE 1 FRET assay IC50
pIC50: −log10 of the molar value.
quantity_kind: pIC50

- input_smiles: "NC1=N[C@](CF)(c2cc(NC(=O)c3ncc(Cl)cc3F)ccc2F)C[C@@H](C(F)(F)F)O1"
  quantity_kind: "pIC50"
  result: 7.29
- input_smiles: "NC1=N[C@](CF)(c2cc(-c3cncc(-c4nnco4)c3)ccc2F)C[C@@H](C(F)(F)F)O1"
  quantity_kind: "pIC50"
  result: 5.08
- input_smiles: "C[C@@]1(c2cc(NC(=O)N3CC=CCC3)ccc2F)C[C@@H](C(F)(F)F)OC(N)=N1"
  quantity_kind: "pIC50"
  result: 4.94
- input_smiles: "C[C@@]1(c2cc(NC(=O)c3nn(C(F)F)cc3Cl)cnc2F)C[C@@H](C(F)(F)F)OC(N)=N1"
  quantity_kind: "pIC50"
  result: 7.62
- input_smiles: "C[C@@]1(c2cc(NC(=O)c3ccc(F)cn3)cnc2F)C[C@@H](C(F)(F)F)OC(N)=N1"
  quantity_kind: "pIC50"
  result: 6.69
- input_smiles: "NC1=N[C@](CF)(c2cc(Nc3ncccc3F)ccc2F)C[C@@H](C(F)(F)F)O1"
  quantity_kind: "pIC50"
  result: 6.24
- input_smiles: "NC1=N[C@](CF)(c2cc(Nc3nccc4cc(Cl)cnc34)cc(F)c2F)C[C@@H](C(F)(F)F)O1"
  quantity_kind: "pIC50"
  result: 7.64
- input_smiles: "CC#Cc1ccc(-c2ccc(F)c([C@]3(CF)C[C@@H](C(F)(F)F)OC(N)=N3)c2)cn1"
  quantity_kind: "pIC50"
  result: 4.56

----------
test_system: Cathepsin D (Cat D) (Homo sapiens (Human), UniProt P07339)
Sequence (P07339 65-412, species assumed): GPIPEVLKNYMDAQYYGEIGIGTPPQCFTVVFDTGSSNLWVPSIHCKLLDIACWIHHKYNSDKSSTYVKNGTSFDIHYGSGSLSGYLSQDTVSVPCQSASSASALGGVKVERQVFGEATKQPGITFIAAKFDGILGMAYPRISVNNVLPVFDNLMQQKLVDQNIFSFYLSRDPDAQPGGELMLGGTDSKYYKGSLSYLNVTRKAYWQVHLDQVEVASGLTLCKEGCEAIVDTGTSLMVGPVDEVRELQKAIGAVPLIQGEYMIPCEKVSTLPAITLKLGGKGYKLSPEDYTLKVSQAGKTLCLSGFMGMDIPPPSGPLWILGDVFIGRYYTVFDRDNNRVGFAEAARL
protocol: In vitro enzymatic Cathepsin D (Cat D) FRET assay
Assay type: biochemical
experimental_setup: average IC50; read-out: CatD IC50

- input_smiles: "C#CCOc1cnc(C(=O)Nc2ccc(F)c([C@]3(C)C[C@@H](C(F)(F)F)OC(N)=N3)n2)cn1"
  test_system: "Cathepsin D (Cat D) (Homo sapiens (Human), UniProt P07339)"
  IC50: "609 µM"
- input_smiles: "Cn1cc(NC(=O)c2ccc(Cl)cn2)cc([C@]2(C)C[C@@H](C(F)(F)F)OC(N)=N2)c1=O"
  test_system: "Cathepsin D (Cat D) (Homo sapiens (Human), UniProt P07339)"
  IC50: "> 400 µM"
- input_smiles: "C[C@@]1(c2nc(NC(=O)c3ncc(C#N)cc3Cl)ccc2F)C[C@@H](C(F)(F)F)OC(N)=N1"
  test_system: "Cathepsin D (Cat D) (Homo sapiens (Human), UniProt P07339)"
  IC50: "> 400 µM"
- input_smiles: "COc1cc(Cl)cnc1C(=O)Nc1ccc(F)c([C@]2(CF)C[C@@H](C(F)(F)F)OC(N)=N2)c1"
  test_system: "Cathepsin D (Cat D) (Homo sapiens (Human), UniProt P07339)"
  IC50: "> 400 µM"

----------
test_system: Cathepsin D (Cat D) (Homo sapiens (Human), UniProt P07339)
protocol: In vitro enzymatic Cathepsin D (Cat D) FRET assay
Type: biochemical
experimental_setup: average IC50, cathepsin D enzyme assay; read-out: CatD IC50
Listed here are compounds together with their documented IC50.

- compound: "COc1cnc2c(Nc3cc(F)c(F)c([C@]4(C)C[C@@H](C(F)(F)F)OC(N)=N4)c3)nccc2c1 [Example 179]"
  unit_label: "µM"
  value_relation_sign: ">"
  IC50: 400
- compound: "NC1=N[C@](CF)(c2cc(NC(=O)c3ncc(Cl)cc3F)ccc2F)C[C@@H](C(F)(F)F)O1 [Example 34]"
  unit_label: "µM"
  value_relation_sign: ">"
  IC50: 400
- compound: "C[C@@]1(c2cc(Nc3nc4ccc(Cl)cc4o3)ccc2F)C[C@@H](C(F)(F)F)OC(N)=N1 [Example 29]"
  unit_label: "µM"
  value_relation_sign: "="
  IC50: 210
- compound: "CC#CCOc1ccc(C(=O)Nc2cc(F)c(F)c([C@]3(CF)C[C@@H](C(F)(F)F)OC(N)=N3)c2)nc1 [Example 160]"
  unit_label: "µM"
  value_relation_sign: ">"
  IC50: 400
- compound: "COc1cc(C#N)cnc1C(=O)Nc1cc(F)c(F)c([C@]2(C)C[C@@H](C(F)(F)F)OC(N)=N2)c1 [Example 168]"
  unit_label: "µM"
  value_relation_sign: ">"
  IC50: 400
- compound: "C[C@@]1(c2nc(NC(=O)c3nn(C(F)F)cc3Cl)ccc2F)C[C@@H](C(F)(F)F)OC(N)=N1 [Example 88]"
  unit_label: "µM"
  value_relation_sign: "="
  IC50: 712
- compound: "CC#CCOc1cnc(C(=O)Nc2ccc(F)c([C@]3(CF)C[C@@H](C(F)(F)F)OC(N)=N3)c2)cn1 [Example 39]"
  unit_label: "µM"
  value_relation_sign: ">"
  IC50: 400
- compound: "C[C@@]1(c2cc(NC(=O)c3ccc(OCC(F)(F)F)cn3)cnc2F)C[C@@H](C(F)(F)F)OC(N)=N1 [Example 65]"
  unit_label: "µM"
  value_relation_sign: "="
  IC50: 150
- compound: "Cc1cc(OC(F)F)cnc1C(=O)Nc1ccc(F)c([C@]2(CF)C[C@@H](C(F)(F)F)OC(N)=N2)c1 [Example 42]"
  unit_label: "µM"
  value_relation_sign: ">"
  IC50: 400
- compound: "NC1=N[C@](CF)(c2cc(NC(=O)c3ccc(C#CC4CC4)cn3)cc(F)c2F)C[C@@H](C(F)(F)F)O1 [Example 158]"
  unit_label: "µM"
  value_relation_sign: ">"
  IC50: 400
- compound: "NC1=N[C@](CF)(c2cc(-c3ncc4cc(F)ccc4n3)ccc2F)C[C@@H](C(F)(F)F)O1 [Example 114]"
  unit_label: "µM"
  value_relation_sign: "="
  IC50: 758
- compound: "C#CCOC1CCN(C(=O)Nc2ccc(F)c([C@]3(C)C[C@@H](C(F)(F)F)OC(N)=N3)c2)CC1 [Example 120]"
  unit_label: "µM"
  value_relation_sign: ">"
  IC50: 400
- compound: "C[C@@]1(c2cc(NC(=O)c3ccc(Cl)cn3)cc(F)c2F)C[C@@H](C(F)(F)F)OC(N)=N1 [Example 164]"
  unit_label: "µM"
  value_relation_sign: "="
  IC50: 1350
- compound: "NC1=N[C@](CF)(c2cc(Nc3ncccc3F)ccc2F)C[C@@H](C(F)(F)F)O1 [Example 14]"
  unit_label: "µM"
  value_relation_sign: "="
  IC50: 879
- compound: "NC1=N[C@](CF)(c2cc(Nc3nccc4nc(C(F)(F)F)cnc34)ccc2F)C[C@@H](C(F)(F)F)O1 [Example 18]"
  unit_label: "µM"
  value_relation_sign: ">"
  IC50: 14.8

----------
System: Aβ40 in conditioned medium of cells stably expressing Amyloid Precursor Protein (APP)
protocol: In vitro BACE cell-based assay (Aβ40 sandwich ELISA)
experimental_setup: Homo sapiens, HEK293, average IC50, HEK cell assay; read-out: HEK cell assay IC50
Hi! Could you tag entries with IC50 below 0.1 µM as yes (1), and those at or above as no (0)? Much appreciated.

- input_smiles: "CC(C)n1cc(Cl)c(C(=O)Nc2cnc(F)c([C@]3(C)C[C@@H](C(F)(F)F)OC(N)=N3)c2)n1"
  assigned_category: "no (0)"
- input_smiles: "NC1=N[C@](CF)(c2cc(Oc3cccc(Cl)n3)ccc2F)C[C@@H](C(F)(F)F)O1"
  assigned_category: "no (0)"
- input_smiles: "C#CCOc1cnc(C(=O)Nc2cc(F)c(F)c([C@]3(CF)C[C@@H](C(F)(F)F)OC(N)=N3)c2)cn1"
  assigned_category: "yes (1)"
- input_smiles: "NC1=N[C@](CF)(c2cc(NC(=O)c3ccc(C#CC4CC4)cn3)ccc2F)C[C@@H](C(F)(F)F)O1"
  assigned_category: "no (0)"
- input_smiles: "NC1=N[C@](CF)(c2cc(NC(=O)c3ccc(C(F)F)cn3)ccc2F)C[C@@H](C(F)(F)F)O1"
  assigned_category: "yes (1)"
- input_smiles: "Cc1cc(C(F)F)cnc1C(=O)Nc1cc(F)c(F)c([C@]2(C)C[C@@H](C(F)(F)F)OC(N)=N2)c1"
  assigned_category: "yes (1)"
- input_smiles: "COc1cnc(C(=O)Nc2cc(F)c(F)c([C@]3(C)C[C@@H](C(F)(F)F)OC(N)=N3)c2)cn1"
  assigned_category: "yes (1)"
- input_smiles: "NC1=N[C@](CF)(c2nc(NC(=O)c3nn(C(F)F)cc3Cl)ccc2F)C[C@@H](C(F)(F)F)O1"
  assigned_category: "yes (1)"
- input_smiles: "C[C@@]1(c2cc(NC(=O)N3CC=CCC3)ccc2F)C[C@@H](C(F)(F)F)OC(N)=N1"
  assigned_category: "no (0)"
- input_smiles: "NC1=N[C@](CF)(c2cc(NC(=O)c3ncc(Cl)cc3F)ccc2F)C[C@@H](C(F)(F)F)O1"
  assigned_category: "yes (1)"
- input_smiles: "Cc1cc(OC(F)F)cnc1C(=O)Nc1ccc(F)c([C@]2(CF)C[C@@H](C(F)(F)F)OC(N)=N2)c1"
  assigned_category: "yes (1)"
- input_smiles: "COc1ccc(C(=O)Nc2cc(F)c(F)c([C@]3(CF)C[C@@H](C(F)(F)F)OC(N)=N3)c2)nc1"
  assigned_category: "no (0)"
- input_smiles: "C[C@@]1(c2cc(NC(=O)c3ccc(OCC(F)(F)F)cn3)cnc2F)C[C@@H](C(F)(F)F)OC(N)=N1"
  assigned_category: "no (0)"
- input_smiles: "C[C@@]1(c2cc(NC(=O)c3ncc(Cl)cc3Cl)cc(F)c2F)C[C@@H](C(F)(F)F)OC(N)=N1"
  assigned_category: "yes (1)"
- input_smiles: "COC1CCN(C(=O)Nc2ccc(F)c([C@]3(C)C[C@@H](C(F)(F)F)OC(N)=N3)c2)CC1"
  assigned_category: "no (0)"
- input_smiles: "C#CCOc1cnc(C(=O)Nc2cc(F)c(F)c([C@]3(C)C[C@@H](C(F)(F)F)OC(N)=N3)c2)cn1"
  assigned_category: "no (0)"
- input_smiles: "NC1=N[C@](CF)(c2cc(Nc3ncccc3F)ccc2F)C[C@@H](C(F)(F)F)O1"
  assigned_category: "no (0)"
- input_smiles: "CC#CCOc1cnc(C(=O)Nc2cc(F)c(F)c([C@]3(CF)C[C@@H](C(F)(F)F)OC(N)=N3)c2)cn1"
  assigned_category: "yes (1)"
- input_smiles: "NC1=N[C@](CF)(c2nc(NC(=O)c3ccc(Cl)cn3)ccc2F)C[C@@H](C(F)(F)F)O1"
  assigned_category: "no (0)"
- input_smiles: "C[C@@]1(c2nc(NC(=O)c3nn(C(F)F)cc3Cl)ccc2F)C[C@@H](C(F)(F)F)OC(N)=N1"
  assigned_category: "yes (1)"
- input_smiles: "C[C@@]1(c2cc(Nc3nc4cc(Cl)ccc4o3)ccc2F)C[C@@H](C(F)(F)F)OC(N)=N1"
  assigned_category: "no (0)"
- input_smiles: "C#CCOc1ccc(C(=O)Nc2ccc(F)c([C@]3(C)C[C@@H](C(F)(F)F)OC(N)=N3)c2)nc1"
  assigned_category: "yes (1)"
- input_smiles: "NC1=N[C@](CF)(c2cc(C(=O)NC3CC3)ccc2F)C[C@@H](C(F)(F)F)O1"
  assigned_category: "no (0)"
- input_smiles: "C[C@@]1(c2cc(Nc3ncc(F)c4cc(C#N)cnc34)cc(F)c2F)C[C@@H](C(F)(F)F)OC(N)=N1"
  assigned_category: "no (0)"
- input_smiles: "NC1=N[C@](CF)(c2cc(Nc3nccc4cc(C#CC5CC5)cnc34)ccc2F)C[C@@H](C(F)(F)F)O1"
  assigned_category: "no (0)"
- input_smiles: "Cc1cc(Cl)cnc1C(=O)Nc1cc(F)c(F)c([C@]2(C)C[C@@H](C(F)(F)F)OC(N)=N2)c1"
  assigned_category: "yes (1)"
- input_smiles: "C[C@@]1(c2cc(NC(=O)c3nn(C(F)F)cc3Cl)cnc2F)C[C@@H](C(F)(F)F)OC(N)=N1"
  assigned_category: "yes (1)"
- input_smiles: "NC1=N[C@](CF)(c2cc(-c3ccc4ccc(F)cc4n3)ccc2F)C[C@@H](C(F)(F)F)O1"
  assigned_category: "no (0)"
